biological target: T1, biotin-labelled EZH2 protein (UniProt Q15910 1-746, limits assumed, biotin label (EZ-link NHS-PEO4-Biotinylation kit)); assay: KDM2B peptide array probed with biotin-EZH2 1 ug/ml, SA-HRP/ECL;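 further: 100% is the highest background-corrected spot optical density on the membrane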;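 further: Background-corrected optical density of each spot on the membrane, given as percent of the brightest spot (100%), color developed for 5 minutes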
T1 construct: Probe in solution (1 ug/ml) on the KDM2B peptide microarray; also called NHS-PEO4-Biotinylation-labelled EZH2 protein; recombinant protein
T1 sequence (Q15910 whole entry): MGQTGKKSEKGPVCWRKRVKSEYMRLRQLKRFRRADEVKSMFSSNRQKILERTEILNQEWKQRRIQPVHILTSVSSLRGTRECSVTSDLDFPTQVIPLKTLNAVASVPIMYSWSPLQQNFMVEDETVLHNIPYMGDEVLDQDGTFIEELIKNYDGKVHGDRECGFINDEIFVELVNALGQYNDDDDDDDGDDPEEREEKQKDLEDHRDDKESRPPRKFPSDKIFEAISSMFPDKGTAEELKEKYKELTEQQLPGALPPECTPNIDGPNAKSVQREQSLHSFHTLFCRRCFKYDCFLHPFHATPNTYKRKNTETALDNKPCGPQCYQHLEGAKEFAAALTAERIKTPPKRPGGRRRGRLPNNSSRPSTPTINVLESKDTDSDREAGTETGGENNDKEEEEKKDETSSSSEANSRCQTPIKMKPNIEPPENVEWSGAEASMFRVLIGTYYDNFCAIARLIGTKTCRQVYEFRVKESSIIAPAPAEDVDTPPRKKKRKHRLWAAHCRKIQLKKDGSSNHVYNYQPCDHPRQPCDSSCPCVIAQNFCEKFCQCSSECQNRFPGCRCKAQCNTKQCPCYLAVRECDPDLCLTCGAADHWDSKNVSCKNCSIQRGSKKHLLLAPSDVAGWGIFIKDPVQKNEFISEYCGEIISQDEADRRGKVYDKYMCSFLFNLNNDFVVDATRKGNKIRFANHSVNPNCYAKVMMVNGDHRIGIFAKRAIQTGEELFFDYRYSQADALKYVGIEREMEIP

- binder: "KLAANRTTAGARRRR [peptide 120]"
  unitsSymbol: "%"
  Intensity (%): 0
- binder: "RKKRKYEKPQELSGR [peptide 161]"
  unitsSymbol: "%"
  Intensity (%): 0
- binder: "INLLTAVGTTTRDSL [peptide 252]"
  unitsSymbol: "%"
  Intensity (%): 0.22
- binder: "FNLMLMECSICNEII [peptide 137]"
  unitsSymbol: "%"
  Intensity (%): 0.24
- binder: "EWVLSGKQSDIFLGD [peptide 56]"
  unitsSymbol: "%"
  Intensity (%): 24.6
- binder: "SWKNAEDRMALANKP [peptide 175]"
  unitsSymbol: "%"
  Intensity (%): 0
- binder: "CWECPKCNHAGKTGK [peptide 144]"
  unitsSymbol: "%"
  Intensity (%): 0
- binder: "TWPKKTPKNRAVGRP [peptide 115]"
  unitsSymbol: "%"
  Intensity (%): 0
